Each item that follows carries a reported self-cleavage kobs at 160 uM GlcN6P.
B1: glmS ribozyme (parent)
chain: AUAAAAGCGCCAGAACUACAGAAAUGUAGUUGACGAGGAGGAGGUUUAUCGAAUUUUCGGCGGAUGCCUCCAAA

# Variants of: B1
# experimental_protocol: self-cleavage kobs at 160 uM GlcN6P; higher = faster cleavage; RNA array
# condition_parameters: with glucosamine-6-phosphate
Fewer inactive variants are shown than the library holds.
Please give a number only; it is taken to be in s⁻¹.

{"mutation_key": "U49G U55A", "uom": "s⁻¹", "self-cleavage kobs at 160 uM GlcN6P": "6.19e-05"}
{"mutation_key": "A53G G66U", "uom": "s⁻¹", "self-cleavage kobs at 160 uM GlcN6P": 0.000168}
{"mutation_key": "A15C A39U U47A U54G", "uom": "s⁻¹", "self-cleavage kobs at 160 uM GlcN6P": "4.07e-05"}
{"mutation_key": "G29U C67A", "uom": "s⁻¹", "self-cleavage kobs at 160 uM GlcN6P": "9.85e-05"}
{"mutation_key": "G29C U54C", "uom": "s⁻¹", "self-cleavage kobs at 160 uM GlcN6P": 0.000153}
{"mutation_key": "U57C U69G", "uom": "s⁻¹", "self-cleavage kobs at 160 uM GlcN6P": "3.31e-05"}
{"mutation_key": "A53C U55G", "uom": "s⁻¹", "self-cleavage kobs at 160 uM GlcN6P": 0.000551}
{"mutation_key": "U31C A64G", "uom": "s⁻¹", "self-cleavage kobs at 160 uM GlcN6P": 0.000159}

(Q) # lookup: self-cleavage kobs at 160 uM GlcN6P of G32U U55A
(A) 4.22e-05

(Q) # lookup: self-cleavage kobs at 160 uM GlcN6P of U47A C67A
(A) 0.000303

(Q) # lookup: self-cleavage kobs at 160 uM GlcN6P of U31G U55A
(A) 0.00128
